Test system: HIV-1NL4-3 variants selected with ATV, LPV and APV
Test Method Notes: p24 assay in MT-4 cells, summary over PI-selected variants
Format: cell-based
Assay Conditions: Human immunodeficiency virus 1, MT4; MT-4 cells; variants selected with up to 5 µM ATV, LPV, APV; read-out: EC50 against PI-selected HIV-1NL4-3 variants
Attribute Measured: EC50

# input Please list EC50 recorded for the compound COc1ccc(S(=O)(=O)N(CC(C)C)CC(O)C(Cc2ccccc2)NC(=O)OC2C3COC4OCC2C4C3)cc1 (stereo not shown)
# output 3.7 to 4.8 nM

* * *

Tested on: HIVMDR strains
Test Method Notes: p24 production inhibition in PHA-PBMC, summary over HIVMDR strains
Type: cell-based, HIV-1
Assay Conditions: Human immunodeficiency virus 1, range over clinical HIVMDR isolates, read-out: EC50 values against HIVMDR
pEC50: −log10 of the molar value.
Attribute Measured: pEC50

# input Please list pEC50 recorded for the compound COc1ccc(S(=O)(=O)N(CC(C)C)CC(O)C(Cc2ccccc2)NC(=O)OC2C3COC4OCC2C4C3)cc1 (stereo not shown)
# output 8.40 to 8.49

* * *

Tested on: HIV-1L10F
Test Method Notes: p24 assay in MT-4 cells, recombinant clone
Assay type: cell-based
Assay Conditions: Human immunodeficiency virus 1, MT4
Attribute Measured: EC50 (nM)
Return type: number; implicit unit nM.

# input Please list EC50 recorded for the compound COc1ccc(S(=O)(=O)N(CC(C)C)CC(O)C(Cc2ccccc2)NC(=O)OC2C3COC4OCC2C4C3)cc1 (stereo not shown)
# output 4.4

* * *

Tested on: HIV-1I84V
Test Method Notes: p24 assay in MT-4 cells, recombinant clone
Type: cell-based
Assay Conditions: Human immunodeficiency virus 1, MT4
Method: The susceptibility of HIV-1LAI or HIV-2ROD to various compounds was determined as previously described[20]–[22]. […] On day 7, the supernatants were harvested and the amounts of p24 were determined by using a fully-automated chemiluminescent enzyme immunoassay system (Lumipulse f: Fujirebio, Tokyo)[35]–[37]. […]
Attribute Measured: pEC50
By convention, pEC50 is the negative base-10 log of a molar concentration.

# input Please list pEC50 recorded for the compound COc1ccc(S(=O)(=O)N(CC(C)C)CC(O)C(Cc2ccccc2)NC(=O)OC2C3COC4OCC2C4C3)cc1 (stereo not shown) [GRL-09510]
# output 8.48

* * *

System: MT-2 cells
Test Method Notes: Cytotoxicity against MT-2 cells (MTT assay)
Assay type: cell-based
Attribute Measured: CC50 (µM)
Return type: number; implicit unit µM.

# input Please list CC50 recorded for the compound COc1ccc(S(=O)(=O)N(CC(C)C)CC(O)C(Cc2ccccc2)NC(=O)OC2C3COC4OCC2C4C3)cc1 (stereo not shown) [GRL-09610]
# output 33.1

* * *

System: HIV-1NL4-3
Test Method Notes: p24 production inhibition in MT-4 cells
Format: cell-based
Assay Conditions: MT-4 cells, p24 Gag production, Table 3
Attribute Measured: pEC50
By convention, pEC50 is the negative base-10 log of a molar concentration.

# input Please list pEC50 recorded for the compound COc1ccc(S(=O)(=O)N(CC(C)C)CC(O)C(Cc2ccccc2)NC(=O)OC2C3COC4OCC2C4C3)cc1 (stereo not shown)
# output 8.49

* * *

Test system: HIV-2ROD
Test Method Notes: microbe, parasite or virus in culture
Type: cell-based
Assay Conditions: Human immunodeficiency virus 2, MT2, MT-2 cells, 100 TCID50, MTT assay; read-out: EC50 Against HIV-2ROD
This listing pairs compounds with measured EC50.
Number first, unit second: that is the form wanted.

# input Please list EC50 recorded for the compound Cc1cccc(C)c1OCC(=O)N[C@@H](Cc1ccccc1)[C@@H](O)C[C@H](Cc1ccccc1)NC(=O)[C@H](C(C)C)N1CCCNC1=O [LPV, Lopinavir]
# output 21 nM

# input Please list EC50 recorded for the compound CC(C)CN(C[C@@H](O)[C@H](Cc1ccccc1)NC(=O)O[C@H]1CCOC1)S(=O)(=O)c1ccc(N)cc1 [APV, Amprenavir]
# output 297 nM

# input Please list EC50 recorded for the compound COC(=O)N[C@H](C(=O)N[C@@H](Cc1ccccc1)[C@@H](O)CN(Cc1ccc(-c2ccccn2)cc1)NC(=O)[C@@H](NC(=O)OC)C(C)(C)C)C(C)(C)C [ATV, Atazanavir]
# output 17 nM

# input Please list EC50 recorded for the compound CC(C)CN(C[C@@H](O)[C@H](Cc1ccccc1)NC(=O)O[C@H]1CO[C@H]2OCC[C@H]21)S(=O)(=O)c1ccc(N)cc1 [DRV, Darunavir]
# output 14 nM

* * *

Test system: HIV-1MDR/G
Test Method Notes: p24 production inhibition in PHA-PBMC
Assay type: cell-based
Assay Conditions: Human immunodeficiency virus 1, PHA-PBMC, p24 Gag production
This listing pairs molecules with measured pEC50.
By convention, pEC50 is the negative base-10 log of a molar concentration.

Look over these answered cases.
CC(C)CN(C[C@@H](O)[C@H](Cc1ccccc1)NC(=O)O[C@H]1CO[C@H]2OCC[C@H]21)S(=O)(=O)c1ccc(N)cc1 [DRV, Darunavir]; 7.70
CC(C)CN(C[C@@H](O)[C@H](Cc1ccccc1)NC(=O)O[C@H]1CCOC1)S(=O)(=O)c1ccc(N)cc1 [APV, Amprenavir]; 6.52

# input Please list pEC50 recorded for the molecule Cc1cccc(C)c1OCC(=O)N[C@@H](Cc1ccccc1)[C@@H](O)C[C@H](Cc1ccccc1)NC(=O)[C@H](C(C)C)N1CCCNC1=O [LPV, Lopinavir]
# output 6.74

# input Please list pEC50 recorded for the molecule COC(=O)N[C@H](C(=O)N[C@@H](Cc1ccccc1)[C@@H](O)CN(Cc1ccc(-c2ccccn2)cc1)NC(=O)[C@@H](NC(=O)OC)C(C)(C)C)C(C)(C)C [ATV, Atazanavir]
# output 7.52

* * *

Test system: HIV-1I47V
Test Method Notes: p24 assay in MT-4 cells, recombinant clone
Format: cell-based
Assay Conditions: Human immunodeficiency virus 1, MT4
Attribute Measured: EC50 (nM)
Return type: number; implicit unit nM.

# input Please list EC50 recorded for the compound COc1ccc(S(=O)(=O)N(CC(C)C)CC(O)C(Cc2ccccc2)NC(=O)OC2C3COC4OCC2C4C3)cc1 (stereo not shown)
# output 3.6

* * *

This listing pairs compounds with measured EC50.
Test system: HIV-1NL4-3
Test Method Notes: p24 production inhibition in MT-4 cells
Assay type: cell-based
Assay Conditions: Human immunodeficiency virus 1, MT4, MT-4 cells, p24 Gag production, Table 3
Protocol: The susceptibility of HIV-1LAI or HIV-2ROD to various compounds was determined as previously described[20]–[22]. […] On day 7, the supernatants were harvested and the amounts of p24 were determined by using a fully-automated chemiluminescent enzyme immunoassay system (Lumipulse f: Fujirebio, Tokyo)[35]–[37]. […]

CC(C)CN(C[C@@H](O)[C@H](Cc1ccccc1)NC(=O)O[C@H]1CO[C@H]2OCC[C@H]21)S(=O)(=O)c1ccc(N)cc1; 4.5 nM
COC(=O)N[C@H](C(=O)N[C@@H](Cc1ccccc1)[C@@H](O)CN(Cc1ccc(-c2ccccn2)cc1)NC(=O)[C@@H](NC(=O)OC)C(C)(C)C)C(C)(C)C; 4.3 nM
COc1ccc(S(=O)(=O)N(CC(C)C)CC(O)C(Cc2ccccc2)NC(=O)OC2C3COC4OCC2C4C3)cc1 (stereo not shown); 2.8 nM

Now for a further compound.
# input Please list EC50 recorded for the compound `CC(C)CN(C[C@@H](O)[C@H](Cc1ccccc1)NC(=O)O[C@H]1CCOC1)S(=O)(=O)c1ccc(N)cc1`
# output 30 nM

* * *

System: HIV-1MDR/B
Test Method Notes: p24 production inhibition in PHA-PBMC
Format: cell-based
Assay Conditions: compared to EC50 for HIV-1ERS104pre
This listing pairs compounds with measured fold change of EC50 HIV-1MDR/B.
Answer field: number only, no words.

Look over these answered cases.
COc1ccc(S(=O)(=O)N(CC(C)C)CC(O)C(Cc2ccccc2)NC(=O)OC2C3COC4OCC2C4C3)cc1 (stereo not shown) [GRL-09510]; 1
COC(=O)N[C@H](C(=O)N[C@@H](Cc1ccccc1)[C@@H](O)CN(Cc1ccc(-c2ccccn2)cc1)NC(=O)[C@@H](NC(=O)OC)C(C)(C)C)C(C)(C)C [ATV, Atazanavir]; 116

# input Please list fold change of EC50 HIV-1MDR/B recorded for the compound CC(C)CN(C[C@@H](O)[C@H](Cc1ccccc1)NC(=O)O[C@H]1CCOC1)S(=O)(=O)c1ccc(N)cc1 [APV, Amprenavir]
# output 11

# input Please list fold change of EC50 HIV-1MDR/B recorded for the compound COc1ccc(S(=O)(=O)N(CC(C)C)CC(O)C(Cc2ccccc2)NC(=O)OC2C3COC4OCC2C4C3)cc1 (stereo not shown) [GRL-09610]
# output 5

* * *

Test system: HIV-1LPV ^R 5μM
Test Method Notes: p24 production inhibition in MT-4 cells
Assay type: cell-based
Assay Conditions: Human immunodeficiency virus 1, MT4, read-out: EC50 HIV-1LPV ^R 5μM, MT-4 cells, p24 Gag production
This listing pairs compounds with measured pEC50.
By convention, pEC50 is the negative base-10 log of a molar concentration.

COC(=O)N[C@H](C(=O)N[C@@H](Cc1ccccc1)[C@@H](O)CN(Cc1ccc(-c2ccccn2)cc1)NC(=O)[C@@H](NC(=O)OC)C(C)(C)C)C(C)(C)C; 7.42

# input Please list pEC50 recorded for the compound `CC(C)CN(C[C@@H](O)[C@H](Cc1ccccc1)NC(=O)O[C@H]1CO[C@H]2OCC[C@H]21)S(=O)(=O)c1ccc(N)cc1`
# output 7.47
